This section presents IC50 values reported for Cytochrome P450 2C19 (Homo sapiens, UniProt P33261) in the literature.

// fetch IC50; item: `Cc1cc2c(cc1CC(=O)c1sccc1S(=O)(=O)Nc1onc(C)c1Cl)COC2` ; system: Cytochrome P450 2C19 (Homo sapiens, UniProt P33261)
> 10 µM

// fetch IC50; item: `C[C@]1(c2cc(NC(=O)c3cnc(OCF)cn3)ccc2F)N=C(N)O[C@H](C(F)(F)C2CC2)[C@@H]1F` ; system: Cytochrome P450 2C19 (Homo sapiens, UniProt P33261)
≥ 20 µM

Give Cytochrome P450 2C19 (Homo sapiens, UniProt P33261) IC50 for the following molecule: `C[C@@H](c1ccc(-c2ccccn2)cc1)N1CC[C@](CCCNS(C)(=O)=O)(c2ccc(F)cc2)OC1=O`
40 µM

Using Cytochrome P450 2C19 (Homo sapiens, UniProt P33261) as the test system, report measured IC50 of `COCC(F)(F)[C@H]1OC(N)=N[C@](C)(c2cc(NC(=O)c3ccc(C#N)cn3)ccc2F)[C@H]1F` .
≥ 20 µM

Quote IC50 with test system Cytochrome P450 2C19 (Homo sapiens, UniProt P33261) for `COc1ccc(Nc2ccc(C(=O)c3c[nH]c4ncnc(NCC5CC5)c34)c(F)n2)cn1`
5 to 10 µM

Using Cytochrome P450 2C19 (Homo sapiens, UniProt P33261) as the test system, report measured IC50 of `CCc1ccc(Nc2ccc(C(=O)c3c[nH]c4ncnc(NCC(C)C)c34)c(F)n2)cn1` .
5 to 10 µM

State measured IC50 of the molecule `Cc1nc(-c2ccc([C@H](C)N3CC[C@](CC(C)(C)O)(c4ccccc4)OC3=O)cc2)sc1C` with Cytochrome P450 2C19 (Homo sapiens, UniProt P33261).
8.2 µM

Give IC50 for this entry on Cytochrome P450 2C19 (Homo sapiens, UniProt P33261): `CCc1ccc(Nc2ccc(C(=O)c3c[nH]c4ncnc(NC)c34)c(F)n2)cn1`
< 5 µM

Write IC50 of `[2H]C([2H])(c1ccc(OCC)cc1)c1cc([C@@H]2O[C@H](CO)[C@@H](O)[C@H](O)[C@H]2O)ccc1Cl` ; system used: Cytochrome P450 2C19 (Homo sapiens, UniProt P33261)
50 to 100 µM

---

A compilation of pIC50 values for UniProtKB P33261 from the published literature.
pIC50: −log10 of the molar value.

Provide measured pIC50 on UniProtKB P33261 for CCCCOCCOc1ccc(-c2ccc3c(c2)C=C(C(=O)Nc2ccc([S+]([O-])Cc4c(CC)ccnc4C)cc2)CCCN3CC2CCCO2)cc1 (single isomer, unassigned) please.
< 4.30

Report its pIC50 with UniProtKB P33261 as the test system: `COc1ccc(C(=O)Nc2ccc(F)c([C@@]3(C)N=C(N)S[C@H](C)[C@@H]3F)c2)nn1`
≤ 4.70

Lab note: record pIC50 of `COc1cnc(C(=O)Nc2ccc(F)c([C@@]3(C)N=C(N)S[C@H](C)[C@@H]3OC)c2)cn1` tested on UniProtKB P33261.
≤ 4.70

Specify the recorded pIC50 for `CC(C)=CNc1ncnc2[nH]cc(C(=O)c3ccc(NC4CCC(F)(F)CC4)nc3Cl)c12` , system: UniProtKB P33261.
< 5.00
